All values here come from patent US8354430B2.

- TARGET OR TEST SYSTEM: UniProt:P35367
- Sequence (P35367 whole entry): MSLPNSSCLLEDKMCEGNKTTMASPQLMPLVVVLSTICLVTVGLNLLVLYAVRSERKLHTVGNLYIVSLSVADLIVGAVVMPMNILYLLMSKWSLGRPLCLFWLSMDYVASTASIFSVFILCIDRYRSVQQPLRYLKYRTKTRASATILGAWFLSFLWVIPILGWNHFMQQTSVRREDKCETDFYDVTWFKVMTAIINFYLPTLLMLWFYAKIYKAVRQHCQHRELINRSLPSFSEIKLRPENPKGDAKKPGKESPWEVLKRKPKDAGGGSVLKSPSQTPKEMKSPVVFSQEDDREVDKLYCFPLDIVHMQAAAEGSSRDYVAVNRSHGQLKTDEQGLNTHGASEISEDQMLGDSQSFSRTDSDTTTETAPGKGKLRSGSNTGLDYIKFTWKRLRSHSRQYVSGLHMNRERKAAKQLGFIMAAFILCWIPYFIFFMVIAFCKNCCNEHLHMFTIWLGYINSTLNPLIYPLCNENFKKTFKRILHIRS
- TEST DESCRIPTION: Histamine-induced increase in [35S]GTPγS binding
- MEASUREMENT SETUP: read-out: Ki or IC50, [35S]GTPγS
pIC50: −log10 of the molar value.
ATTRIBUTE MEASURED: pIC50

Input line: Report pIC50 from UniProt:P35367 testing of Cl.Clc1ccc(CCCOCCCN2CCCCC2)cc1 [monohydrochloride]
Output line: < 5.00

---

- TEST DESCRIPTION: 13-week repeat oral dose study in monkeys
- MEASUREMENT SETUP: monkey, in vivo
ATTRIBUTE MEASURED: NOAEL at 13 weeks
Field: value (include unit after the number)

Input line: Read the entry Cl.Clc1ccc(CCCOCCCN2CCCCC2)cc1 and write its reported NOAEL at 13 weeks.
Output line: 5 mg/kg/day
